Cited source: PubChem BioAssay

Procedure Summary: inhibitors of TNFa-induced NFkB p65 translocation, primary screen, imaging, HUVEC, MLSMR starter and 10KST1 sets (AID 438);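 also: compound added about 3h40 before a 20 min TNFalpha stimulation; signal is the nuclear over cytoplasmic p65 intensity ratio per well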
Condition Description: HUVEC TNFa-induced p65 nuclear translocation; at 2 µM, stronger effect = higher value, 0% TNFa-plus-vehicle, 100% no-TNFa wells
Consider the following compounds; for each one, report its inhibition.
A number alone suffices; assume %.

Look at this compound and give its reported inhibition. "CCCNC1=C(C)C(=O)CC1" -0.5

What about "Cn1c(=O)c2c(nc(CN3CCCCC3)n2CCCc2ccccc2)n(C)c1=O" ? 10.1

What about "Cc1cc2c(C)nc(Cc3ccccc3)nc2o1" ? -5.5

What about Cc1ccc(-c2noc(-c3ccccc3C(=O)NCC3CCCO3)n2)cc1 (stereo unspecified) ? 2

What about COc1ccc(/C(O)=C2/C(=O)C(=O)N(Cc3ccco3)C2c2cccs2)cc1 (stereo unspecified) ? 89.9

What about CCC(C(=O)O)n1c(C(F)(F)F)nc2ccccc21 (stereo unspecified) ? -29.6

What about "CCOC(=O)c1c(C)[nH]c(C(=O)Cn2c(=O)c3c(ncn3CC)n(Cc3ccccc3)c2=O)c1C" ? 4

What about "COc1ccc(-c2nc3cc(NC(=O)Cc4ccc(OC)c(OC)c4)ccc3o2)cc1" ? -25.3

What about COc1ccc(S(=O)(=O)C(C#N)c2nc3ccccc3nc2N2CCCC(C)C2)cc1 (stereo unspecified) ? -5

What about CCOC(=O)C(C)c1nc2ccccc2[nH]c1=O (stereo unspecified) ? -6.6

What about CCOC(=O)c1[nH]c2ccc(OC)cc2c1NC(=O)CCN1CCCC(C)C1 (stereo unspecified) ? -0.1
